assayed-target: MAT2A recombinant protein (Homo sapiens, UniProt P31153)
Sequence (P31153 whole entry): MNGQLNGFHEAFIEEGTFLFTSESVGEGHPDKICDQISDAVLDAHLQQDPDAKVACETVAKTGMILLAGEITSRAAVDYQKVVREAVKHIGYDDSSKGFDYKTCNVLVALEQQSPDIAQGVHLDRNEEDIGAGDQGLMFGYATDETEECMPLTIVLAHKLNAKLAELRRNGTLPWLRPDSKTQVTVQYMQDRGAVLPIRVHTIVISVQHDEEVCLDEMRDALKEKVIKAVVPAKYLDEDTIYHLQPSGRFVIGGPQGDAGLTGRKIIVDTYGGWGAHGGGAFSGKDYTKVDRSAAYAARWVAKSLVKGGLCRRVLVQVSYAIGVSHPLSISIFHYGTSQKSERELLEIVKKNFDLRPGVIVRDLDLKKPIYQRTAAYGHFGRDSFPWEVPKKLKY
run-description: MAT2A inhibitory activity (malachite green colorimetric enzyme assay)
Type: biochemical
measurement-setup: read-out: MAT2A Inhibition
property: pIC50
pIC50 (log units): -log10 of the concentration in mol/L.

Ask | Give its pIC50 value. Item: CCn1cc2c(n1)c(=O)n(-c1cccnc1)c1cc(OC(F)(F)F)ccc21
Reply | 6.90

Ask | Give its pIC50 value. Item: Cc1c2c(nn1C)c(=O)n(-c1cccnc1)c1cc(Cl)ccc21
Reply | 7.57

Ask | Give its pIC50 value. Item: [2H]C([2H])([2H])n1cc2c(n1)c(=O)n(-c1cccc3[nH]ncc13)c1nc(C(F)(F)F)ccc21
Reply | 7.77

Ask | Give its pIC50 value. Item: Cn1cc2c(n1)c(=O)n(-c1cccc(OC(F)F)c1)c1nc(C(F)(F)F)ccc21
Reply | 6.87

Ask | Give its pIC50 value. Item: Cc1ncccc1-n1c(=O)c2nn(C)c(C)c2c2ccc(C(F)(F)F)nc21
Reply | 7.40

Ask | Give its pIC50 value. Item: Cn1cc2c(n1)c(=O)n(-c1cccc(F)c1)c1nc(C(F)(F)F)ccc21
Reply | 7.60

Ask | Give its pIC50 value. Item: Cn1cc2c(n1)c(=O)n(Cc1cn[nH]c1)c1nc(C(F)(F)F)ccc21
Reply | 7.04

Ask | Give its pIC50 value. Item: CCn1cc2c(n1)c(=O)n(-c1cncc(F)c1)c1cc(Cl)ccc21
Reply | 7.17

Ask | Give its pIC50 value. Item: Cn1cc2c(n1)c(=O)n(-c1cccc3[nH]ncc13)c1cc(Cl)cnc21
Reply | 7.08

Ask | Give its pIC50 value. Item: COCCn1cc2c(n1)c(=O)n(-c1cccnc1)c1cc(Cl)ccc21
Reply | 7.56

Ask | Give its pIC50 value. Item: Cn1cc2c(n1)c(=O)n(-c1cccc(C#N)c1)c1nc(C(F)(F)F)ccc21
Reply | 7.57

Ask | Give its pIC50 value. Item: COc1ncccc1-n1c(=O)c2nn(C)cc2c2ccc(C(F)(F)F)nc21
Reply | 7.29

Ask | Give its pIC50 value. Item: NC(=O)CC1N=c2c(c3ccc(Cl)cc3n(-c3cccnc3)c2=O)=N1 (centres unmarked)
Reply | 7.26

Ask | Give its pIC50 value. Item: Cn1cc2c(n1)c(=O)n(-c1cccc3[nH]ncc13)c1cc(Cl)ccc21
Reply | 7.32

Ask | Give its pIC50 value. Item: O=c1c2nn(Cc3cccnc3)cc2c2ccc(Cl)cc2n1-c1cccnc1
Reply | 7.53

Ask | Give its pIC50 value. Item: Cc1ncccc1-n1c(=O)c2nn(C)cc2c2ccc(C3CC3)cc21
Reply | 7.35
